The measured values listed here are drawn from patent US9834518B2.

target: EGFR bearing the L858R/T790M double mutation (Homo sapiens, UniProt P00533, L858R/T790M); assay: Kinase inhibition, EGFR L858R/T790M; format: biochemical; conditions: 10 μM ATP; 10 pt curves, 3 μM top concentration (singlicates)
Sequence (P00533 25-1210 T790M/L858R): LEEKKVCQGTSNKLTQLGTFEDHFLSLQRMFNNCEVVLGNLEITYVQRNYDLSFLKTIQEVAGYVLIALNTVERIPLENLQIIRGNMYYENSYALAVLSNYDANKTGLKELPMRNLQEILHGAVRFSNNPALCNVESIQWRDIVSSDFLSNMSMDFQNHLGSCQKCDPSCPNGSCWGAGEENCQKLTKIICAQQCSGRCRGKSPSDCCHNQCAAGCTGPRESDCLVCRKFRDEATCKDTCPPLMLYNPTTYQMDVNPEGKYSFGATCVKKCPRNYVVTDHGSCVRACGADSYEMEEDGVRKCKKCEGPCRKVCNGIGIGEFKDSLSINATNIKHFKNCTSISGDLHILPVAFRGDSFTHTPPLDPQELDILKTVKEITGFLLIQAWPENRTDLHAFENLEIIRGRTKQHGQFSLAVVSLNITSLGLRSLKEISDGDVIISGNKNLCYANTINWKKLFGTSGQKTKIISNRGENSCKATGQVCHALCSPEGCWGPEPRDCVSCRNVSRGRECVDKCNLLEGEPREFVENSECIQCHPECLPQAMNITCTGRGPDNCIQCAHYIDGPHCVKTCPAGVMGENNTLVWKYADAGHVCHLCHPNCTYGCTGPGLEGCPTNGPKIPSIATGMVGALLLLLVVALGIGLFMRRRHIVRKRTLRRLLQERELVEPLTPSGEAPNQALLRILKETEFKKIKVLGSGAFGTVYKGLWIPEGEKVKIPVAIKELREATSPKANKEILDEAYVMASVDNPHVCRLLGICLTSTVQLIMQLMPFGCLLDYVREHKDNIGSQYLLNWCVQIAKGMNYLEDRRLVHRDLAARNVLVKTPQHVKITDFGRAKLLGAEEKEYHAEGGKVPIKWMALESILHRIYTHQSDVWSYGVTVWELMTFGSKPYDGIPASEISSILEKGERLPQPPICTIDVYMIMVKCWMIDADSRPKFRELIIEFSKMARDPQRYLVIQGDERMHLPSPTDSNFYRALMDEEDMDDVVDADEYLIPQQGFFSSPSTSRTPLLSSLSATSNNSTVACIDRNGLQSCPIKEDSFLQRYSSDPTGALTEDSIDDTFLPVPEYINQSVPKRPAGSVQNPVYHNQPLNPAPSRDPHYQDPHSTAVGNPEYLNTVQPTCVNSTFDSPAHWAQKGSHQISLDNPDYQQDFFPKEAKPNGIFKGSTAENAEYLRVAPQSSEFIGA
Parameter: IC50. Scope: all listed entries.

Reference set, count: 2
# compound, measured.on, IC50
data = [
    ("C=CC(=O)Nc1cc(Nc2ncc(Cl)c(Nc3ccccc3P(C)(C)=O)n2)c(OC)cc1OC(COC)CN(CC)CC (centres unmarked)", "EGFR bearing the L858R/T790M double mutation (Homo sapiens, UniProt P00533, L858R/T790M)", "< 51 nM"),
    ("C=CC(=O)Nc1cc(Nc2ncc(Cl)c(Nc3ccccc3P(C)(C)=O)n2)c(OC)cc1N(C)CCCN(C)C", "EGFR bearing the L858R/T790M double mutation (Homo sapiens, UniProt P00533, L858R/T790M)", "51 to 100 nM"),
]

Find the recorded IC50 belonging to COc1cc(F)c(NC(=O)/C=C/CN(C)C)cc1Nc1ncc(Cl)c(Nc2ccccc2P(C)(C)=O)n1 and report it.
< 51 nM

Find the recorded IC50 belonging to C/C=C/C(=O)Nc1ccc(OC)c(Nc2ncc(Cl)c(Nc3ccccc3P(C)(C)=O)n2)c1 and report it.
≥ 250 nM

====

molecular target: human EGFR (native sequence) (Homo sapiens); assay: Kinase inhibition, human EGFR (native sequence); type: biochemical; conditions: 10 μM ATP; 10 pt curves, 3 μM top concentration (singlicates)
Sequence (P00533 25-1210): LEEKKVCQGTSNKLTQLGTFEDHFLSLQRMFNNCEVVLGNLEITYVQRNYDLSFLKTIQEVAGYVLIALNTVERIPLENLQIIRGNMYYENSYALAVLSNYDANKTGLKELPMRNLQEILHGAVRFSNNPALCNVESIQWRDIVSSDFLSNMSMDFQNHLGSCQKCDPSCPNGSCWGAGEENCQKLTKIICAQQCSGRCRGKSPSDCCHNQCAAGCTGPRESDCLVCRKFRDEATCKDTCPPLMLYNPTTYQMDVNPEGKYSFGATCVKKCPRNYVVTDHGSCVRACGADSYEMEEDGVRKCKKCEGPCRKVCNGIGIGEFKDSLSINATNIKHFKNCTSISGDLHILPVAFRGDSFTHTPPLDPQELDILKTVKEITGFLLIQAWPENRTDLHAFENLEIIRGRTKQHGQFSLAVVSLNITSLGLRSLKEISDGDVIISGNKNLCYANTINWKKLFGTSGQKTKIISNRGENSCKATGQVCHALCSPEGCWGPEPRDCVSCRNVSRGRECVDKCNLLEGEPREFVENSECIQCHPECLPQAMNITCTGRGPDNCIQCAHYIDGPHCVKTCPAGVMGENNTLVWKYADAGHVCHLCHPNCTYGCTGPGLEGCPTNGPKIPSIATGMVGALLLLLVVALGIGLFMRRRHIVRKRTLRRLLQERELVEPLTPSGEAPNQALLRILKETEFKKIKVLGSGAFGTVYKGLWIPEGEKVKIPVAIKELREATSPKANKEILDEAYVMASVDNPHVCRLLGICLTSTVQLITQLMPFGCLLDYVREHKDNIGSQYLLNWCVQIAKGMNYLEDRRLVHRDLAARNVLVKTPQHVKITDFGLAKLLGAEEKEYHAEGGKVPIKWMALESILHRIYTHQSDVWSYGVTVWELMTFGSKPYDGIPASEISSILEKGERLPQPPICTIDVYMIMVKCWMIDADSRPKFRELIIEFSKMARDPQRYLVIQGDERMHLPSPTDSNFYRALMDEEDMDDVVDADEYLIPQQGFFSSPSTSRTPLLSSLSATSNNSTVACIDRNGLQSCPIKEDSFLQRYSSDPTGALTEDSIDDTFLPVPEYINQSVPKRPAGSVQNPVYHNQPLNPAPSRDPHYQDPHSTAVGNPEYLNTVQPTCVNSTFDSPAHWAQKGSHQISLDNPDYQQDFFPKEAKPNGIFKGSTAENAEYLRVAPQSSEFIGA
value.type: IC50

Reference set, count: 3
# molecule, endpoint.value
records = [
    ("C=CC(=O)Nc1ccc(OC)c(Nc2ncc(Cl)c(Nc3ccccc3P(=O)(CC)CC)n2)c1", "< 51 nM"),
    ("C=CC(=O)Nc1cc(Nc2ncc(Cl)c(Nc3ccccc3P(C)(C)=O)n2)c(OC)cc1OCC(COC)N(C)C (stereo not shown)", "< 51 nM"),
    ("C=CC(=O)Nc1ccc(OC)c(Nc2nc(Nc3ccccc3P(C)(C)=O)c3c(F)c[nH]c3n2)c1", "≥ 250 nM"),
]

Find the recorded IC50 belonging to C=CC(=O)Nc1cccc(Oc2nc(Nc3ccc(P(C)(C)=O)cc3OC)ncc2Cl)c1 and report it.
101 to 250 nM

====

biological target: EGFR bearing the L858R mution (Homo sapiens, UniProt P00533, L858R); test: Kinase inhibition, EGFR L858R; assay type: biochemical; settings: 10 μM ATP; 10 pt curves, 3 μM top concentration (singlicates)
Sequence (P00533 25-1210 L858R): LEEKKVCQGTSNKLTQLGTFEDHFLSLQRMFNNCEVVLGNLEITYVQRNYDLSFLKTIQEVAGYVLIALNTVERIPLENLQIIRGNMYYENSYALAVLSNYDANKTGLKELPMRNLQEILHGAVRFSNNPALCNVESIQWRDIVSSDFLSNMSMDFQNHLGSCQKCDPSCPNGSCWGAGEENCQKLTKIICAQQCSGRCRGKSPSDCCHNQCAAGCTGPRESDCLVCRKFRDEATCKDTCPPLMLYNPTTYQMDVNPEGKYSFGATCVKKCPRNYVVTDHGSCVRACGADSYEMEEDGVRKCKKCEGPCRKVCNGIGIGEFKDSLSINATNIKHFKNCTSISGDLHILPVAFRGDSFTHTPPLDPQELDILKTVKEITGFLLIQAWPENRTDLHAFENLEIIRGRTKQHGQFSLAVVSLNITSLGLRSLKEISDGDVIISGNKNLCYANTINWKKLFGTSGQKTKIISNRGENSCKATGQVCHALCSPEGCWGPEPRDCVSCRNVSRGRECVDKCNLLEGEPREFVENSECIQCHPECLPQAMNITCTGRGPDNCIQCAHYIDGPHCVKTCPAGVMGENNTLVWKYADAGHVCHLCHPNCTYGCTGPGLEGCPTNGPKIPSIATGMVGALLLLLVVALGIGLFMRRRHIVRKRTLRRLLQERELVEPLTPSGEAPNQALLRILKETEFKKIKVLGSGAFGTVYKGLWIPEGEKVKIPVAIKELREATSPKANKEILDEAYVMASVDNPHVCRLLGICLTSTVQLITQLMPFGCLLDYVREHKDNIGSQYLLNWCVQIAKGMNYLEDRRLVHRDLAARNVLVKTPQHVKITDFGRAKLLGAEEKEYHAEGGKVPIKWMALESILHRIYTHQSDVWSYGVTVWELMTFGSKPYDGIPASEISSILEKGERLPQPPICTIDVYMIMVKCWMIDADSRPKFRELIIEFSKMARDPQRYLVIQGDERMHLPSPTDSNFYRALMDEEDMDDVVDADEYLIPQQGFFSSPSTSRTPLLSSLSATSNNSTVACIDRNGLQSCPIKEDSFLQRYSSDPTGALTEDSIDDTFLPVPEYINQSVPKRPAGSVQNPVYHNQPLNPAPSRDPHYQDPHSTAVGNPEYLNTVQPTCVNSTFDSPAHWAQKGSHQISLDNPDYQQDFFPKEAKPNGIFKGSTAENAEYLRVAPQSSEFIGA
Parameter: IC50. Scope: all listed entries.

Find the recorded IC50 belonging to COc1ccc(NC(=O)C2(C)CO2)cc1Nc1ncc(Cl)c(Nc2ccccc2P(C)(C)=O)n1 (stereo not shown) and report it.
< 51 nM

Find the recorded IC50 belonging to COc1ccc(NC(=O)/C=C/CN(C)C)cc1Nc1ncc(Cl)c(Nc2ccccc2P(C)(C)=O)n1 and report it.
< 51 nM

Find the recorded IC50 belonging to CC#CC(=O)Nc1ccc(OC)c(Nc2ncc(Cl)c(Nc3ccccc3P(C)(C)=O)n2)c1 and report it.
51 to 100 nM

Find the recorded IC50 belonging to C=CC(=O)Nc1cccc(Oc2nc(Nc3ccc(P(C)(C)=O)cc3OC)ncc2Cl)c1 and report it.
< 51 nM

Find the recorded IC50 belonging to C=CC(=O)Nc1cc(Nc2ncc(Cl)c(Nc3ccccc3P(C)(C)=O)n2)c(OC)cc1N(CC)CCN(CC)CC and report it.
< 51 nM

Find the recorded IC50 belonging to C=CC(=O)Nc1cc(Nc2ncc(Cl)c(Nc3ccccc3P(C)(C)=O)n2)c(OC)cc1OCC(COC)N(C)C (stereo not shown) and report it.
< 51 nM

Find the recorded IC50 belonging to C=CC(=O)Nc1ccc(OC)c(Nc2nccc(Nc3ccccc3P(C)(C)=O)n2)c1 and report it.
51 to 100 nM
